# TARGET_OR_TEST_SYSTEM: T1, wildtype feline IL-31 protein (Feline_IL31_wildtype) (feline)
# T1 construct: Full length feline IL-31 with C-terminal His tag, secreted from ExpiCHO cells; also called fIL-31
# T1 chain: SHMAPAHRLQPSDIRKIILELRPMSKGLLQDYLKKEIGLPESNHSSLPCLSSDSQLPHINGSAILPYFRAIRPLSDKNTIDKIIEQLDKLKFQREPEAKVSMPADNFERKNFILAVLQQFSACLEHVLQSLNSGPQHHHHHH
# PROTOCOL: SPR (Biacore), IL-31 on chip, 1:1 fit
REPORTED_ENDPOINT: kon (M⁻¹ s⁻¹)

BINDER | DISPLAY_UNIT | REPORTED_MEASUREMENT
Feline 15H05 2.1 (antibody, V domains shown, Feline heavy and kappa constant regions) VH: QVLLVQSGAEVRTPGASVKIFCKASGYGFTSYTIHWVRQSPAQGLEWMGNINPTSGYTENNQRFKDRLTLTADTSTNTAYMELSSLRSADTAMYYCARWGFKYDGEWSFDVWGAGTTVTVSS VL: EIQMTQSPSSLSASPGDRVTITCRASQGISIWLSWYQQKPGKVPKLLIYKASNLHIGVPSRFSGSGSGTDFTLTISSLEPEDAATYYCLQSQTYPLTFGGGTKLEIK | M⁻¹ s⁻¹ | 208000
Feline 15H05 2.2 (antibody, V domains shown, Feline heavy and kappa constant regions) VH: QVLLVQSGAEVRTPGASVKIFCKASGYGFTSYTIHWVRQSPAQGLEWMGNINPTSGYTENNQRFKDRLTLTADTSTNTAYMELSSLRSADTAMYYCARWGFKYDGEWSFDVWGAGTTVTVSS VL: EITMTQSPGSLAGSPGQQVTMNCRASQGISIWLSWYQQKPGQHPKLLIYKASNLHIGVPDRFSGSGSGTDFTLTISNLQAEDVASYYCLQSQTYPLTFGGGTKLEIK | M⁻¹ s⁻¹ | 905000
